Just for reference, ChEMBL document CHEMBL4819081 is where these values come from.

For each of the compounds below, state its IC50.
- Tested on: MDA-MB-453
- PROTOCOL SUMMARY: Antiproliferative activity against human MDA-MB-453 cells assessed as reduction in cell viability after 72 hrs by MTT assay
- Type: functional, cell-based
- EXPERIMENTAL SETUP: MDA-MB-453, 72 h
Give the number; µM is assumed, so skip it.

input: Form field: reported IC50 of CC(=O)c1c(C)c2cnc(Nc3ccc(N4CCN(C(=O)CCl)CC4)cn3)nc2n(C2CCCC2)c1=O
output: 1.75

input: Form field: reported IC50 of C=CC(=O)NCCOCCOCCNC(=O)CN1CCN(c2ccc(Nc3ncc4c(C)c(C(C)=O)c(=O)n(C5CCCC5)c4n3)nc2)CC1
output: 10.2

input: Form field: reported IC50 of CC(=O)c1c(C)c2cnc(Nc3ccc(N4CCN(CCC(=O)NCCOCCOCCNC(=O)CCl)CC4)cn3)nc2n(C2CCCC2)c1=O
output: 9.2

input: Form field: reported IC50 of CC(=O)c1c(C)c2cnc(Nc3ccc(N4CCN(CC(=O)NCCCNC(=O)CCl)CC4)cn3)nc2n(C2CCCC2)c1=O
output: 1.92

input: Form field: reported IC50 of CC(=O)c1c(C)c2cnc(Nc3ccc(N4CCN(CCC(=O)NCCCCNC(=O)CCl)CC4)cn3)nc2n(C2CCCC2)c1=O
output: 7.01

====

- TARGET SYSTEM: CDK7/Cyclin H/MNAT1 (Homo sapiens)
- Sequence (P51946 whole entry): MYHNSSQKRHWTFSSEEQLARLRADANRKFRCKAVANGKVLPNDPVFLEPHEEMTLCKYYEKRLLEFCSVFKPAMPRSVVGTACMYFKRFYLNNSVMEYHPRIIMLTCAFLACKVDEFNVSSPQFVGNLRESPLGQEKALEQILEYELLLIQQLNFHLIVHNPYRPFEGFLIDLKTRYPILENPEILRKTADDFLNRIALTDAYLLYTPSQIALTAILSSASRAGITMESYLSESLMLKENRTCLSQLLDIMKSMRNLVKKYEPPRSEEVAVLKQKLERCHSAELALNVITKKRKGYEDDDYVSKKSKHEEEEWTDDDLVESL
- Sequence (P50613 whole entry): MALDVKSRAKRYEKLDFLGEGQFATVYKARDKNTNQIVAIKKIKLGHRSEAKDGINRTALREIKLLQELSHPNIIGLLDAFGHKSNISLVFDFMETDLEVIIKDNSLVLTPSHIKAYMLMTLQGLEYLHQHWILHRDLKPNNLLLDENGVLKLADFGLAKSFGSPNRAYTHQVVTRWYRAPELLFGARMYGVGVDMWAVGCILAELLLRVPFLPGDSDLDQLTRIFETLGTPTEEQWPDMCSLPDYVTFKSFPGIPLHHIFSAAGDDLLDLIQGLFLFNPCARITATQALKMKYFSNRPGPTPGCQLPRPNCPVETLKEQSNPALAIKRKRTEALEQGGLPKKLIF
- Sequence (P51948 whole entry, further chain): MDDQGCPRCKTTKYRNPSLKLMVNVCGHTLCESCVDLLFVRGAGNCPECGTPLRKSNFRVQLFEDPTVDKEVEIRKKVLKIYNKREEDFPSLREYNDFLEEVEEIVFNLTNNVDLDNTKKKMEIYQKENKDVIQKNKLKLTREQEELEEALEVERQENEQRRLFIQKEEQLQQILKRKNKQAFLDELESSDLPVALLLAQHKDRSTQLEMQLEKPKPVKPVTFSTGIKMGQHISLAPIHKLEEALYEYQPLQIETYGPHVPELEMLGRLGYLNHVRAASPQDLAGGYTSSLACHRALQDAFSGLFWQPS
- PROTOCOL SUMMARY: Inhibition of CDK7/cyclin H/MAT1 (unknown origin)
pIC50: −log10 of the molar value.
RECORDED METRIC: pIC50

input: Form field: reported pIC50 of CC(=O)c1c(C)c2cnc(Nc3ccc(N4CCN(C(=O)CCl)CC4)cn3)nc2n(C2CCCC2)c1=O
output: < 5.48

====

For each of the compounds below, state its IC50.
- Test system: MDA-MB-453
- PROTOCOL SUMMARY: Antiproliferative activity against human MDA-MB-453 cells assessed as reduction in cell viability after 72 hrs by MTT assay
- Format: functional, cell-based
- EXPERIMENTAL SETUP: MDA-MB-453, 72 h
Give the number; µM is assumed, so skip it.

input: Form field: reported IC50 of CCC(=O)N1CCN(c2ccc(Nc3ncc4c(C)c(C(C)=O)c(=O)n(C5CCCC5)c4n3)nc2)CC1
output: 71.5

input: Form field: reported IC50 of CC(=O)c1c(C)c2cnc(Nc3ccc(N4CCN(CC(=O)NCCCCCCNC(=O)CCl)CC4)cn3)nc2n(C2CCCC2)c1=O
output: 5.11

input: Form field: reported IC50 of CC(=O)c1c(C)c2cnc(Nc3ccc(N4CCN(CC(=O)NCCNC(=O)CCl)CC4)cn3)nc2n(C2CCCC2)c1=O
output: 7.6

input: Form field: reported IC50 of CC(=O)c1c(C)c2cnc(Nc3ccc(N4CCN(CC(=O)NCCOCCNC(=O)CCl)CC4)cn3)nc2n(C2CCCC2)c1=O
output: 3.55

input: Form field: reported IC50 of C=CC(=O)N1CCN(c2ccc(Nc3ncc4c(C)c(C(C)=O)c(=O)n(C5CCCC5)c4n3)nc2)CC1
output: 6.96

input: Form field: reported IC50 of CC(=O)c1c(C)c2cnc(Nc3ccc(N4CCN(CCC(=O)NCCCCNCC#N)CC4)cn3)nc2n(C2CCCC2)c1=O
output: 12.8
